Test system: A2058 cells
Assay: Cell viability assay (CELL-TITER-GLO) in A2058 cells
Type: cell-based
Settings: Homo sapiens, A2058, 48 h, A2058 cells, 48 hour treatment, cell viability; read-out: IC50 (μM) A2058
Provide the reported IC50 of each item.

>  <molecule>
COC(=O)c1nc2oc1C13c4cc(ccc4O[C@@H]1Nc1c(-c4ccccc4)cccc13)C[C@H](NC(=O)[C@@H](O)C(C)C)C(=O)N[C@H]2C(C)C (stereo partly shown)

>  <subject-of-test>
A2058 cells

>  <IC50>
> 1 µM

$$$$
>  <molecule>
COC(=O)c1nc2oc1C13c4ccccc4N[C@H]1Oc1ccc(cc13)C[C@H](NC(=O)[C@@H](O)CC(C)C)C(=O)N[C@H]2C(C)C (stereo partly shown)

>  <subject-of-test>
A2058 cells

>  <IC50>
> 1 µM

$$$$
>  <molecule>
CCC(O)(CC)C(=O)N[C@H]1Cc2ccc3c(c2)C2(C4=C(c5nc(C(=O)OC)co5)N=C(O4)[C@H](C(C)C)NC1=O)c1ccccc1N[C@H]2O3 (stereo partly shown)

>  <subject-of-test>
A2058 cells

>  <IC50>
0.077 µM

$$$$

Take each entry in turn and give its IC50.
1. CC(C)[C@H](O)C(=O)N[C@H]1Cc2ccc3c(c2)C2(C4=C(C(=O)N[C@@H]5CCCc6ccccc65)N=C(O4)[C@H](C(C)C)NC1=O)c1ccccc1N[C@H]2O3 (stereo partly shown)
2. COC(=O)c1nc2oc1[C@@]13c4cc(Cl)ccc4NC1Oc1ccc(cc13)C[C@H](NC(=O)[C@@H](O)C(C)C)C(=O)N[C@H]2C(C)C (stereo partly shown)
3. COC(=O)c1nc2oc1C13c4ccccc4N[C@H]1Oc1ccc(cc13)C[C@H](NC(=O)c1cc(OC)c(OC)c(OC)c1)C(=O)N[C@H]2C(C)C (stereo partly shown)
4. COC(=O)c1coc(-c2nc3oc2C24c5ccccc5N[C@H]2Oc2ccc(cc24)C[C@H](NC(=O)C2(O)CCCCC2)C(=O)N[C@H]3C(C)C)n1 (stereo partly shown)

Output:
["> 1 µM", "> 1 µM", "> 1 µM", "0.056 µM"]

###

Provide the reported IC50 of each item.
Test system: A2058 cells
Experiment: Cell viability assay (CELL-TITER-GLO) in A2058 cells
Format: cell-based
Settings: Homo sapiens, A2058, 48 h, A2058 cells, 48 hour treatment, cell viability; read-out: IC50 (μM) A2058
Experimental: Cell viability assays were run using standard protocols known to those of skill in art. Cells were plated in 96 well plates at the density of 3,000-10,000 cells per well. Twenty four hours later, cells were treated with increasing concentration of test compounds (1 nM to 1 μM). After another 48 hour, cell survival was measured using CELL-TITER-GLO® reagent (Promega) following the protocol provided by the manufacture. […]
One number for each entry, in µM.

Some solved entries appear below for comparison.
>  <molecule>
CCCCCCc1oc(-c2nc3oc2C24c5ccccc5N[C@H]2Oc2ccc(cc24)C[C@H](NC(=O)[C@@H](O)C(C)C)C(=O)N[C@H]3C(C)C)nc1C(=O)OC (stereo partly drawn) [Example 77]

>  <unit-abbrev>
µM

>  <IC50>
0.08

$$$$
>  <molecule>
CNC(C(=O)N[C@H]1Cc2ccc3c(c2)C2(C4=C(c5nc(C(=O)OC)co5)N=C(O4)[C@H](C(C)C)NC1=O)c1ccccc1N[C@H]2O3)C(C)C (stereo partly drawn) [Example 57]

>  <unit-abbrev>
µM

>  <IC50>
0.313

$$$$

Take each entry in turn and give its IC50.
1. CC(C)[C@H](O)C(=O)N[C@H]1Cc2ccc3c(c2)C2(C4=C(c5nc(C(=O)OC(C)(C)C)co5)N=C(O4)[C@H](C(C)C)NC1=O)c1ccccc1N[C@H]2O3 (stereo partly drawn) [Example 82]
2. CC(C)[C@H](O)C(=O)N[C@H]1Cc2ccc3c(c2)C2(C4=C(c5nc(C#N)c(N)o5)N=C(O4)[C@H](C(C)C)NC1=O)c1ccccc1N[C@H]2O3 (stereo partly drawn) [Example 86]
3. CC(C)[C@H](O)C(=O)N[C@H]1Cc2ccc3c(c2)C2(C4=C(C5=NCCO5)N=C(O4)[C@H](C(C)C)NC1=O)c1ccccc1N[C@H]2O3 (stereo partly drawn) [Example 43]

Output:
[0.126, 0.179, 0.533]

Take each entry in turn and give its IC50.
1. Cc1coc(-c2nc3oc2C24c5ccccc5N[C@H]2Oc2ccc(cc24)C[C@H](NC(=O)[C@@H](O)C(C)C)C(=O)N[C@H]3C(C)C)n1 (stereo partly drawn) [Example 79]
2. COC(=O)c1nc(-c2nc3oc2C24c5ccccc5N[C@H]2Oc2ccc(cc24)C[C@H](NC(=O)[C@@H](O)C(C)(C)C)C(=O)N[C@H]3C(C)C)oc1C (stereo partly drawn) [Example 68]
3. CCC(O)(CC)C(=O)N[C@H]1Cc2ccc3c(c2)C2(C4=C(c5nc(C(=O)OC)c(C)o5)N=C(O4)[C@H](C(C)C)NC1=O)c1ccccc1N[C@H]2O3 (stereo partly drawn) [Example 69]
4. CC(C)[C@H](O)C(=O)N[C@H]1Cc2ccc3c(c2)C2(C4=C(c5nc(C(=O)N(C)C)co5)N=C(O4)[C@H](C(C)C)NC1=O)c1ccccc1N[C@H]2O3 (stereo partly drawn) [Example 65]
5. CC(C)[C@H](O)C(=O)N[C@H]1Cc2ccc3c(c2)C2(C4=C(c5ncc(-c6c[nH]c7c(O)cccc67)o5)N=C(O4)[C@H](C(C)C)NC1=O)c1ccccc1N[C@H]2O3 (stereo partly drawn) [Example 90]
6. CCOC(=O)c1coc(-c2nc3oc2C24c5ccccc5N[C@H]2Oc2ccc(cc24)C[C@H](NC(=O)[C@@H](O)C(C)C)C(=O)N[C@H]3C(C)C)n1 (stereo partly drawn) [Example 80]

Output:
1: 0.174; 2: 0.066; 3: 0.17; 4: 0.553; 5: 0.994; 6: 0.021

Task: Endpoint output: IC50 of CCCCCCc1cccc2c1N[C@H]1Oc3ccc4cc3C21c1oc(nc1-c1nc(C(=O)OC)co1)[C@H](C(C)C)NC(=O)[C@@H](NC(=O)[C@@H](O)C(C)C)C4 (stereo partly drawn) [Example 54] . Value?
Output: 0.164

###

Test system: A2058 cells
Test: Cell viability assay (CELL-TITER-GLO) in A2058 cells
Assay type: cell-based
Conditions: Homo sapiens, A2058, 48 h, A2058 cells, 48 hour treatment, cell viability; read-out: IC50 (μM) A2058
property-measured: IC50 (µM)
Numbers only, in µM.

Some solved entries appear below for comparison.
>  <compound>
CC(C)[C@H](O)C(=O)N[C@H]1Cc2ccc3c(c2)C2(C4=C(c5ncc[nH]5)N=C(O4)[C@H](C(C)C)NC1=O)c1ccccc1N[C@H]2O3 (some centres unmarked)

>  <property-measured>
IC50

>  <endpoint-result>
0.337

$$$$
>  <compound>
CC(C)OC(=O)c1coc(-c2nc3oc2C24c5ccccc5N[C@H]2Oc2ccc(cc24)C[C@H](NC(=O)[C@@H](O)C(C)C)C(=O)N[C@H]3C(C)C)n1 (some centres unmarked)

>  <property-measured>
IC50

>  <endpoint-result>
0.006

$$$$

Now for another entry.
Task: Endpoint output: IC50 of CC(C)[C@H](O)C(=O)N[C@H]1Cc2ccc3c(c2)C2(C4=C(c5nc(C(N)=O)co5)N=C(O4)[C@H](C(C)C)NC1=O)c1ccccc1N[C@H]2O3 (some centres unmarked) . Value?
Output: 0.363

###

Tested on: A2058 cells
Test: Cell viability assay (CELL-TITER-GLO) in A2058 cells
Type: cell-based
Conditions: Homo sapiens, A2058, 48 h, A2058 cells, 48 hour treatment, cell viability; read-out: IC50 (μM) A2058
property-measured: IC50 (µM)
Give bare numbers, in µM.

>  <molecule>
CC(C)[C@H](O)C(=O)N[C@H]1Cc2ccc3c(c2)[C@]24C5=C(N=C(O5)[C@H](C(C)C)NC1=O)c1ncc(o1)-c1c[nH]c5cccc(c15)-c1cccc2c1NC4O3 (stereo partly drawn) [Cpd J, reference compound]

>  <unit-abbrev>
µM

>  <IC50>
0.039

$$$$
>  <molecule>
CCC(O)(CC)C(=O)N[C@H]1Cc2ccc3c(c2)C2(C4=C(c5cnco5)N=C(O4)[C@H](C(C)C)NC1=O)c1ccccc1N[C@H]2O3 (stereo partly drawn) [Example 84]

>  <unit-abbrev>
µM

>  <IC50>
0.487

$$$$

Now for another entry.
Task: Endpoint output: IC50 of CC(C)[C@H](O)C(=O)N[C@H]1Cc2ccc3c(c2)C2(C4=C(c5nc(C(=O)NC(C)(C)C)co5)N=C(O4)[C@H](C(C)C)NC1=O)c1ccccc1N[C@H]2O3 (stereo partly drawn) [Example 59] . Value?
Output: 0.514
